test system: Herpes Simplex Virus Type 1, Strain 377; test: antiviral activity vs herpes simplex virus type 1 (virus-induced cytopathogenic effects in host cells); assay type: cell-based; conditions: Human alphaherpesvirus 1, Vero, HSV-1 strain 377; rabbit kidney cells or Vero cells; read-out: MIC50 (concentration for 50% inhibition of virus-induced cytopathogenic effects)
EC50 overview
Report the value in µg/mL with no unit label.

>  <molecule>
Nc1nc(Cl)c2ncn([C@@H]3C[C@H](CO)[C@@H](O)C3)c2n1 (relative stereo)

>  <EC50 [µg/mL]>
8.1

$$$$
>  <molecule>
Nc1nc2c(nnn2[C@@H]2C[C@H](CO)[C@@H](O)C2)c(=O)[nH]1 (relative stereo)

>  <EC50 [µg/mL]>
0.6

$$$$

Param readout = EC50; param system = Herpes Simplex Virus Type 1, Strain 377; param query = Nc1nc(N)c2ncn([C@@H]3C[C@H](CO)[C@@H](O)C3)c2n1 (relative stereo) ; response: value
0.6
